# Tested system: Fibroblast growth factor 10 (Homo sapiens)
# Method description: compounds binding fibroblast growth factor 10 – biochemical, small-molecule microarray, 635 nm fluorescence, primary screen (AID 1102)
# Study conditions: FGF10 binding, fluorescence 635 nm, higher = more signal
Readout type: composite z-score
Response field accepts a number only; no unit should be typed.

Compound	Tested system	composite z-score
COC(=O)[C@@]1(Cc2ccc(F)cc2)[C@H]2c3cc(C(=O)N4CCCC4)n(Cc4ccc(Cl)c(C(F)(F)F)c4)c3C[C@H]2CN1C(=O)c1ccccc1	Fibroblast growth factor 10 (Homo sapiens)	0.879
O=P(NCC1(CC2(c3ccccc3)CO2)CC1)(c1ccccc1)c1ccccc1 (stereo not given)	Fibroblast growth factor 10 (Homo sapiens)	-0.686
COc1ccc(C#Cc2ccc3c(c2)[C@]2(C(=O)N3)[C@H](C(=O)N3CCc4cc(OC)c(OC)cc4C3)[C@H]3C(=O)O[C@H](c4ccccc4)[C@H](c4ccccc4)N3[C@@H]2c2ccc(OCCO)cc2)cc1	Fibroblast growth factor 10 (Homo sapiens)	1.29
Cc1ccccc1/C=C/C=O	Fibroblast growth factor 10 (Homo sapiens)	-0.435

Request: Hello, please tell me recorded composite z-score for this one: C[n+]1ccc2ccc(O)cc2c1
Response: 1.07

Request: Hello, please tell me recorded composite z-score for this one: COCCOC(=O)N1C(=O)[C@@]2(c3ccccc31)[C@H](c1ccc(O)cc1)N1[C@H](c3ccccc3)[C@H](c3ccccc3)OC(=O)[C@H]1[C@@H]2C(N)=O
Response: -0.422

Request: Hello, please tell me recorded composite z-score for this one: [N-]=[N+]=Nc1ccccc1C[C@]1(C(=O)N2CCCCC2)N=C(c2ccc(OCCCO)cc2)O[C@H]1c1ccccc1N=[N+]=[N-]
Response: 1.4

Request: Hello, please tell me recorded composite z-score for this one: CN1C(=O)C2C=CC(C(O)C3=C[C@H]4C[C@@H](C3)C4(C)C)N(Nc3ccc([N+](=O)[O-])cc3[N+](=O)[O-])C2C1=O (stereo not given in full)
Response: 0.721

Request: Hello, please tell me recorded composite z-score for this one: CC(C)[C@H]1COC(=O)N1C(=O)[C@H]1[C@@H](c2ccccc2)N(c2ccccc2)O[C@@H]1C
Response: 0.521

Request: Hello, please tell me recorded composite z-score for this one: Cc1ccc(C(C)CC(O)C2C=CC3C(=O)NC(=O)C3N2Nc2ccccn2)o1 (stereo not given)
Response: 0.228

Request: Hello, please tell me recorded composite z-score for this one: NC(=O)[C@]1(Cc2ccccc2)N=C(c2ccc(OCCCO)cc2)O[C@@H]1c1ccccc1
Response: 0.61

Request: Hello, please tell me recorded composite z-score for this one: O[C@@H](Cc1ccccc1)[C@@H](/C=C/c1ccccc1)NCc1ccccc1Br
Response: -1.98
